target: Squalene Synthetase (Rattus norvegicus, UniProt Q02769); construct: from tissue; host or cells: liver microsomes of male Charles River CD rats fed 0.1% lovastatin; experiment: Squalene synthetase assay, rat liver microsomes, [4-14C]farnesyl pyrophosphate; assay type: biochemical; details: in absence of PPi; 30° C., 20 minutes; salt form as tabulated
Sequence (Q02769 whole entry): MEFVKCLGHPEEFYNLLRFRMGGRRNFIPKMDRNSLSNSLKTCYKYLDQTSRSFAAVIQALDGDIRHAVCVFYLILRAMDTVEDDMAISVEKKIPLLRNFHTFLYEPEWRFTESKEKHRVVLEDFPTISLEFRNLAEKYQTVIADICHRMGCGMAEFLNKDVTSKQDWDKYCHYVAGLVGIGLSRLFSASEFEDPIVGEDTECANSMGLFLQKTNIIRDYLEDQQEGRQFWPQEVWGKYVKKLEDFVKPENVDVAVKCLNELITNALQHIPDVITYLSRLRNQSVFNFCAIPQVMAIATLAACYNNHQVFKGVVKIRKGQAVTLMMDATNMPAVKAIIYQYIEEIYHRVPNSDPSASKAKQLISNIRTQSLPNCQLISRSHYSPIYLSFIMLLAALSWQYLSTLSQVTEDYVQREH
Entries whose IC50 is below 2000 nM take 1; entries at or above 2000 nM take -1.

c1ccc2c(-c3noc(C4CN5CCC4CC5)n3)c[nH]c2c1 (stereo not shown)    1

Then there is this compound:
Exam item: Does this compound meet the criterion IC50 < 2000 nM? COc1ccccc1-c1noc(C2CN3CCC2CC3)n1 (stereo not shown)
Marked response: -1

====

target: Squalene Synthetase (Rattus norvegicus, UniProt Q02769); construct: from tissue; host or cells: liver microsomes of male Charles River CD rats fed 0.1% lovastatin; assay: Squalene synthetase assay, rat liver microsomes, [4-14C]farnesyl pyrophosphate; type: biochemical; settings: in presence of 1 mM PPi; 30° C., 20 minutes; salt form as tabulated
readout-kind: pIC50
Numbers only, as −log10 of the molar value.

Below: 8 compounds and their reported pIC50.
c1ccc2c(-c3noc(C4CN5CCC4CC5)n3)c[nH]c2c1 (stereo not shown)    7.64
c1ccc2ncc(-c3noc(C4CN5CCC4CC5)n3)cc2c1 (stereo not shown)    7.38
Cc1ccc2c(c1)c(-c1noc(C3CN4CCC3CC4)n1)cn2C (stereo not shown)    7.24
Cn1cc(-c2noc(C3CN4CCC3CC4)n2)c2ccccc21 (stereo not shown)    7.55
COc1cccc(-c2noc(C3CN4CCC3CC4)n2)c1 (stereo not shown)    7.51
COc1ccccc1-c1noc(C2CN3CCC2CC3)n1 (stereo not shown)    6.60
c1ccc2c(-c3noc(C4CN5CCC4CC5)n3)cccc2c1 (stereo not shown)    7.96
c1cncc(-c2noc(C3CN4CCC3CC4)n2)c1 (stereo not shown)    6.18

Can you give me pIC50 for all of these, one by one?
1. c1ccc(-c2noc(C3CN4CCC3CC4)n2)cc1 (stereo not shown)
2. Cn1c(-c2noc(C3CN4CCC3CC4)n2)cc2ccccc21 (stereo not shown)

Marked response:
[7.37, 7.70]

====

Assignment: determine reported inhibition at 0.3 µg/mL for the given compounds.
molecular target: Squalene Synthetase (Rattus norvegicus); construct: from tissue; host or cells: liver microsomes of male Charles River CD rats fed 0.1% lovastatin; assay: Squalene synthetase assay, rat liver microsomes, [4-14C]farnesyl pyrophosphate; format: biochemical; conditions: in presence of 1 mM PPi; conc. 0.3 μg/mL; salt form as tabulated
Answers are plain numbers, in %.

Below: 4 compounds and their reported inhibition at 0.3 µg/mL.
Oc1cccc(-c2noc(C3CN4CCC3CC4)n2)c1 (centres unmarked) [Compound 32]    92
COc1cccc(-c2noc(C3CN4CCC3CC4)n2)c1 (centres unmarked) [Compound 28]    99
c1ccc2c(-c3noc(C4CN5CCC4CC5)n3)c[nH]c2c1 (centres unmarked) [Compound 35]    98
Oc1ccc(-c2noc(C3CN4CCC3CC4)n2)cc1 (centres unmarked) [Compound 33]    84

Exam item: Any idea what inhibition at 0.3 µg/mL was measured for Cn1cc(-c2noc(C3CN4CCC3CC4)n2)c2cc(F)ccc21 (centres unmarked) [Compound 4] ?
Marked response: 97

====

target: Squalene Synthetase (Rattus norvegicus, UniProt Q02769); construct: from tissue; host or cells: liver microsomes of male Charles River CD rats fed 0.1% lovastatin; experiment: Squalene synthetase assay, rat liver microsomes, [4-14C]farnesyl pyrophosphate; assay type: biochemical; conditions: in presence of 1 mM PPi; conc. 0.3 μg/mL; salt form as tabulated
Assignment: determine reported inhibition at 0.3 µg/mL for the given compounds.

Can you give me inhibition at 0.3 µg/mL for all of these, one by one?
1. CC(=O)OC(c1ccccc1)c1noc(C2CN3CCC2CC3)n1 (stereo not shown)
2. Cc1ccc2c(c1)c(-c1noc(C3CN4CCC3CC4)n1)cn2C (stereo not shown)
3. c1ccc2c(-c3noc(C4CN5CCC4CC5)n3)cccc2c1 (stereo not shown)
4. O=C(c1ccccc1)c1noc(C2CN3CCC2CC3)n1 (stereo not shown)
5. Oc1ccccc1-c1noc(C2CN3CCC2CC3)n1 (stereo not shown)
6. OC(c1ccccc1)(c1ccccc1)c1noc(C2CN3CCC2CC3)n1 (stereo not shown)
7. c1ccc(-c2noc(C3CN4CCC3CC4)n2)cc1 (stereo not shown)

Marked response:
["70%", "96%", "99%", "64%", "90%", "60%", "98%"]

====

molecular target: Squalene Synthetase (Rattus norvegicus, UniProt Q02769); construct: from tissue; host or cells: liver microsomes of male Charles River CD rats fed 0.1% lovastatin; test: Squalene synthetase assay, rat liver microsomes, [4-14C]farnesyl pyrophosphate; type: biochemical; details: in absence of PPi; 30° C., 20 minutes; salt form as tabulated
readout-kind: IC50 (nM)
Numbers only, in nM.

Below: 3 molecules and their reported IC50.
Cn1c(-c2noc(C3CN4CCC3CC4)n2)cc2ccccc21 (centres unmarked)    1100
c1ccc2c(-c3noc(C4CN5CCC4CC5)n3)cccc2c1 (centres unmarked)    2300
Cn1cc(-c2noc(C3CN4CCC3CC4)n2)c2ccccc21 (centres unmarked)    1600

Exam item: Any idea what IC50 was measured for COc1cccc(-c2noc(C3CN4CCC3CC4)n2)c1 (centres unmarked) ?
Marked response: 2800

====

biological target: Squalene Synthetase (Rattus norvegicus); construct: from tissue; host or cells: liver microsomes of male Charles River CD rats fed 0.1% lovastatin; test: Squalene synthetase assay, rat liver microsomes, [4-14C]farnesyl pyrophosphate; assay type: biochemical; details: in presence of 1 mM PPi; conc. 0.3 μg/mL; salt form as tabulated
readout-kind: inhibition at 0.3 µg/mL (%)
Give bare numbers, in %.

Below: 2 compounds and their reported inhibition at 0.3 µg/mL.
c1ccc2ncc(-c3noc(C4CN5CCC4CC5)n3)cc2c1 (stereo not drawn)    97
COc1ccc(-c2noc(C3CN4CCC3CC4)n2)cc1 (stereo not drawn)    99

Note: attention shifts to another entry.
Exam item: Any idea what inhibition at 0.3 µg/mL was measured for OC(c1ccccc1)c1noc(C2CN3CCC2CC3)n1 (stereo not drawn) ?
Marked response: 49
